- Tested on: glycerol oxidase II
- assay: Substrate specificity, relative activity by 4-AA method
- Type: biochemical, Penicillium sp. KY 868
- particulars: substrate equimolar to glycerol; activity on glycerol defined as 100; 4-AA method
measured quantity: Relative activity
Numbers only.

Consider the worked cases shown below.
>>> experimental_result("OCC(O)CO")
100
>>> experimental_result("CC(O)CCO (centres unmarked)")
11

Hey, quick one: what's Relative activity for each of these?
1. CCO
2. O=P(O)(O)OCC(O)CO (centres unmarked)
3. CCCCO
4. CC(C)O
5. OCCCO

*A*
1. 11
2. 12
3. 7
4. 23
5. 23

Where these numbers come from: patent US4255519A
